# procedure-details: Lipid purity change after storage in EtOH for 96 h at 25 or 37 °C
# Type: physicochemical
# experimental-parameters: 25° C.
readout-type: Lipid % change purity in EtOH, 25° C., 96 h (%)

1 = CCCCCCCCCN(CCCCCCCCC)CCN(CCCCCCCCC)CC(=O)N1CCN(C(=O)CCCC(=O)OCCCCCCC)CC1
2 = CCCCCCCCCN(CCCCCCCCC)CCN(CCCCCCCCC)CC(=O)N1CCN(C(=O)CN(CCCCCCCCC)CCCC(=O)SCCCCC)CC1
3 = CCCCCCCCCCCCCCN(CCCCCCCC(=O)OCCCCC)CC(=O)N1CCN(C(=O)CN(CCCCCCCCC)CCN(CCCCCCCCC)CCCCCCCCC)CC1
4 = CCCCCCCCCCCCCCN(CCCOC(=O)CCCCCCCCC)CC(=O)N1CCN(C(=O)CN(CCCCCCCCC)CCN(CCCCCCCCC)CCCCCCCCC)CC1
Order the entries above by descending Lipid % change purity in EtOH, 25° C., 96 h. State the ranking by listing the labels in the requested order.
1, 4, 2, 3

1 = CCCCCCCCCN(CCCCCCCCC)CCN(CCCCCCCCC)CC(=O)N1CCC(CCOC(=O)CN(CCCCCCCCC)CCCCCCCCC)CC1
2 = CCCCC/C=C\CCN(CC/C=C\CCCCC)CCN(CC/C=C\CCCCC)CC(=O)N1CCN(C(=O)CN(CCCCCCCCC)CCCCCCCC(=O)OC)CC1
Response body: label of entry with the larger Lipid % change purity in EtOH, 25° C., 96 h; valid values 1 , 2 . Record your answer as the label of the chosen record.
1

----------
# procedure-details: Lipid clearance: % dose remaining in liver of CD-1 mice
# Type: in vivo
# experimental-parameters: intravenous, 0.5 mg/kg, CD-1 mouse, Table 8a
readout-type: % Dose Remaining 6 hr (%)

These solved cases illustrate the format of a correct answer.
{"compound": "CCCCCCCCCN(CCCC(=O)OCCCCC)CCC(=O)N1CCN(C(=O)CCN(CCCCCCCCC)CCN(CCCCCCCCC)CCCCCCCCC)CC1", "% Dose Remaining 6 hr / %": 16.99}
{"compound": "CCCCCCCCCN(CCCC(=O)OCCCCC)CCC1CCN(C(=O)CN(CCCCCCCCC)CCN(CCCCCCCCC)CCCCCCCCC)CC1", "% Dose Remaining 6 hr / %": 31.32}

1 = CCCCCCCCCN(CCCC(=O)OCCCCC)CCC1CCN(C(=O)CN(CCCCCCCCC)CCN(CCCCCCCCC)CCCCCCCCC)C1 (centres unmarked)
2 = CCCCCCCCCN(CCCCCCCCC)CCN(CCCCCCCCC)CC(=O)N1CCC(CN(CCCCCCCCC)CCCC(=O)OCCCCC)C1 (centres unmarked)
3 = CCCCCCCCCN(CCCOC(=O)CCCCC)CCCC1CCN(C(=O)CCN(CCCCCCCCC)CCN(CCCCCCCCC)CCCCCCCCC)CC1
# desc sort on % Dose Remaining 6 hr across 3 compounds State the ranking by listing the labels in the requested order.
2, 1, 3

----------
# procedure-details: pKa of nanoparticle compositions
# Type: physicochemical
# experimental-parameters: Table 1c
readout-type: pKa

{"compound": "CCCCCCCCCCCCCCN(CCCCCCCCCCCC(=O)OC)CCC1CCN(C(=O)CN(CCCCCCCCC)CCN(CCCCCCCCC)CCCCCCCCC)CC1", "pKa": 6.55}
{"compound": "CCCCCCCCCN(CCCCCCCCC)CCN(CCCCCCCCC)CC(=O)N1CCC(COC(=O)CN(CCCCCCCCC)CCCCCCCCC)C1 (stereo not drawn)", "pKa": 5.85}
{"compound": "CCCCCCCCCCCCCCN(CCCCCCCC(=O)OCCCCC)CCC1CCN(C(=O)CN(CCCCCCCCC)CCN(CCCCCCCCC)CCCCCCCCC)C1 (stereo not drawn)", "pKa": 6.94}
{"compound": "CCCCCCCCCCCCCCN(CCCCCC(=O)OCCCCCCC)CCC1CCCN(C(=O)CN(CCCCCCCCC)CCN(CCCCCCCCC)CCCCCCCCC)C1 (stereo not drawn)", "pKa": 6.50}
{"compound": "CCCCCCCCCN(CCCCCCCCC)CCN(CCCCCCCCC)CC(=O)N(C)CCN(C)C(=O)CN(CCCCCCCCC)CCCCCCCCC", "pKa": 7.46}
{"compound": "CCCCC/C=C\\CCN(CC/C=C\\CCCCC)CCN(CC/C=C\\CCCCC)CC(=O)N1CCN(C(=O)CN(CCCCCCCCC)CCCCCCCC(=O)OC)CC1", "pKa": 6.15}

----------
# procedure-details: Particle size and polydispersity index of nanoparticle compositions (Zetasizer Nano ZS)
# Assay type: physicochemical
# experimental-parameters: Table 1e, Formulated with lipid:Chol:DOPE:PEG 1 40:38.5:20:1.5
readout-type: Size (nm)

These solved cases illustrate the format of a correct answer.
{"smiles-text": "CCCCCCCCCN(CCCCCCCCC)CCN(CCCCCCCCC)CC(=O)NCCCCOC(=O)CCCC", "Size (nm)": 107.8}
{"smiles-text": "CCCCCCCCCOC(=O)CN(CCCCCCCCC)CCN(CCCCCCCCC)CCCCCCCCC", "Size (nm)": 59.4}
{"smiles-text": "CCCCCCCCCCNC(=O)CN(CCCCCCCCC)CCN(CCCCCCCCC)CCCCCCCCC", "Size (nm)": 73.1}
{"smiles-text": "CCCCCCCCCCN(CCCCCCCCCC)CCCCC(=O)N1CCN(C(=O)CCCCN(CCCCCCCCCC)CCCCCCCCCC)CC1", "Size (nm)": 74.4}

1 = CCCCCCCCCCCCCCNC(=O)CN(CCCCCCCCC)CCN(CCCCCCCCC)CCCCCCCCC
2 = CCCCCCCCCN(CCCCCCCCC)CCN(CCCCCCCCC)CCOC(=O)CCCCCCCC
Please compare: 1 and 2 . Report which one has the smaller Size (nm) value. Record your answer as the label of the chosen record.
2
(2: 60.0 nm, 1: 88.6 nm)

----------
# procedure-details: Lipid purity change after storage in EtOH for 96 h at 25 or 37 °C
# Type: physicochemical
# experimental-parameters: 25° C.
readout-type: Lipid % change purity in EtOH, 25° C., 96 h (%)

These solved cases illustrate the format of a correct answer.
{"compound": "CCCCCCCCCN(CCCCCCCCC)CCN(CCCCCCCCC)CC(=O)N1CCN(C(=O)CN(CCCCCCCCC)CC(C)COC(=O)CCCCC)CC1 (stereo not shown)", "scale-unit": "%", "numeric-value": 3.54}
{"compound": "CCCCCCCCCCCCN(CCCOC(=O)CCCCCCC)CC(=O)N1CCN(C(=O)CN(CCCCCCCCC)CCN(CCCCCCCCC)CCCCCCCCC)CC1", "scale-unit": "%", "numeric-value": 2.26}
{"compound": "CCCCCCCCCCCCCCN(CCCCCC(=O)OCCCCCCC)CCC1CCCN(C(=O)CN(CCCCCCCCC)CCN(CCCCCCCCC)CCCCCCCCC)C1 (stereo not shown)", "scale-unit": "%", "numeric-value": 0.3}

a = CCCCCCCCCCCCCCN(CCCCCCCC(=O)OCCCCC)CCC1CCCN(C(=O)CN(CCCCCCCCC)CCN(CCCCCCCCC)CCCCCCCCC)C1 (stereo not shown)
b = CCCCCCCCCN(CCCCCCCCC)CCN(CCCCCCCCC)CCOC(=O)C1CCN(C(=O)CN(CCCCCCCCC)CCCCCCCCC)CC1
c = CCCCCCCCCCCCCCN(CCCCCCCCCCCC(=O)OC)CC(=O)N1CCN(C(=O)CN(CCCCCCCCC)CCN(CCCCCCCCC)CCCCCCCCC)CC1
d = CCCCCCCCCN(CCCCCCCCC)CCN(CCCCCCCCC)CC(=O)N1CCC(COC(=O)CN(CCCCCCCCC)CCCCCCCCC)C1 (stereo not shown)
# desc sort on Lipid % change purity in EtOH, 25° C., 96 h across 4 compounds State the ranking by listing the labels in the requested order.
d, b, c, a
(d: 14.8%, b: 8.46%, c: 2.9%, a: 0.8%)

I = CCCCCCCCCN(CCCCCCCCC)CCN(CCCCCCCCC)CC(=O)N1CCC(CCOC(=O)CN(CCCCCCCCC)CCCCCCCCC)C1 (stereo not shown)
II = CCCCCCCCCN(CCCCCCCCC)CCN(CCCCCCCCC)CC(=O)OC1CCC(OC(=O)CN(CCCCCCCCC)CCCCCCCCC)CC1 (stereo not shown)
III = CCCCCCCCCCCCCCN(CCCCCCCCCCCC(=O)OC)CCC1CCN(C(=O)CN(CCCCCCCCC)CCN(CCCCCCCCC)CCCCCCCCC)C1 (stereo not shown)
Arrange the 3 entries by Lipid % change purity in EtOH, 25° C., 96 h so the values rise. State the ranking by listing the labels in the requested order.
I, III, II

----------
# procedure-details: Particle size and polydispersity index of nanoparticle compositions (Zetasizer Nano ZS)
# Format: physicochemical
# experimental-parameters: Table 1e, Formulated with lipid:Chol:DOPE:PEG 1 40:38.5:20:1.5
readout-type: PDI

{"smiles-text": "CCCCCCCCCCCCCCNC(=O)CN(CCCCCCCCC)CCN(CCCCCCCCC)CCCCCCCCC", "PDI": 0.23}
{"smiles-text": "CCCCCCCCCN(CCCCCCCCC)CCCOCCCN(CCCCCCCCC)CCN(CCCCCCCCC)CCCCCCCCC", "PDI": 0.17}
{"smiles-text": "CCCCCCCCCCN(CCCCCCCCCC)CCCCC(=O)N1CCN(C(=O)CCCCN(CCCCCCCCCC)CCCCCCCCCC)CC1", "PDI": 0.15}
{"smiles-text": "CCCCCCCCCCCCCC(=O)OCCN(CCCCCCCCC)CCN(CCCCCCCCC)CCCCCCCCC", "PDI": 0.24}
{"smiles-text": "CCCCCCCCCN(CCCCCCCCC)CCN(CCCCCCCCC)CC(=O)NCCCCOC(=O)CCCC", "PDI": 0.22}
{"smiles-text": "CCCCCCCCCOC(=O)CN(CCCCCCCCC)CCN(CCCCCCCCC)CCCCCCCCC", "PDI": 0.24}
{"smiles-text": "CCCCCCCCCCNC(=O)CN(CCCCCCCCC)CCN(CCCCCCCCC)CCCCCCCCC", "PDI": 0.23}
{"smiles-text": "CCCCCCCCCCCCCCOC(=O)CN(CCCCCCCCC)CCN(CCCCCCCCC)CCCCCCCCC", "PDI": 0.22}
{"smiles-text": "CCCCCCCCCN(CCCCCCCCC)CCN(CCCCCCCCC)CCOC(=O)CCCCCCCC", "PDI": 0.17}
